Assay: in vitro
Conditions: human, hela cells, % viability
Reported Metric: viability at 28.5 h, 10 µM
Answer format reminder: number followed by unit.

Illustrative cases are given below, each with its answer.
* CSc1nn(C)c(=S)c2c3c(oc12)CCC3 | 92.3%
* COc1ccc(NC(=O)C2CCCN2c2nc(O)cc(C(F)(F)F)n2)c(OC)c1 (centres unmarked) | 94.9%
* Cn1c(COc2ccccc2Cl)nnc1SCC(=O)N1c2ccccc2Sc2ccccc21 | 96.5%
* CN1CCN(Cc2nc3c(c(=O)n(C)c(=O)n3C)n2CCc2ccccc2)CC1 | 96.2%
* COCc1nc2n(n1)CC(NC1CCCCc3ccccc31)CC2 (centres unmarked) | 89.4%

### Prompt Which viability at 28.5 h, 10 µM value is on record for `CCOC(=O)c1cnn2c(O)cc(CN(Cc3ccco3)C3CC3)nc12` ?
### Response 82.3%

### Prompt Which viability at 28.5 h, 10 µM value is on record for `O=C(Cc1ccc(F)cc1)N1CCC(c2cccc(Cc3ccccc3F)n2)CC1` ?
### Response 117%

### Prompt Which viability at 28.5 h, 10 µM value is on record for `C=CCn1c2ccccc2c2nnc(SCC(=O)Nc3c(C)n(C)n(-c4ccccc4)c3=O)nc21` ?
### Response 87.6%

### Prompt Which viability at 28.5 h, 10 µM value is on record for `CN(C)c1cccc(-c2cncc(Nc3ccc(Cl)cc3)n2)c1` ?
### Response 98.8%

### Prompt Which viability at 28.5 h, 10 µM value is on record for `FC(F)(F)c1cccc(OCCN2CCOCC2)n1` ?
### Response 105%

### Prompt Which viability at 28.5 h, 10 µM value is on record for Cn1cc(CN2C3CCC(C3)[C@@H]2COc2ccc(F)cc2)cn1 (some centres unmarked) ?
### Response 106%

### Prompt Which viability at 28.5 h, 10 µM value is on record for `O=C1c2ccccc2CN1c1cccc2ccccc12` ?
### Response 85.3%

### Prompt Which viability at 28.5 h, 10 µM value is on record for `c1cc(-c2nccnc2NCC2CCCCC2)ccn1` ?
### Response 99.4%

###

Tested on: CTL2-GFP (C. trachomatis L2/434/Bu, GFP-expressing)
Construct: L2/434/Bu, GFP-expressing
Assay: microbe, parasite or virus in culture
Set-up: Intracellular C. trachomatis growth in HeLa cells, bulk GFP fluorescence relative to DMSO
Conditions: Chlamydia trachomatis, HeLa, 28.5 h; bulk GFP, mean of 2; read-out: % of control remaining
Label scheme for activity at 10 µM: b0 (below 20%), b1 (20% to below 40%), b2 (40% or more)

A selection of reference data follows.
* Cc1cccc(Nc2nc(C)cc3n[nH]c(=O)n23)c1 [CBK288477] | b1
* COc1nccnc1NS(=O)(=O)c1ccc(Nc2c([N+](=O)[O-])cc([N+](=O)[O-])c3nonc23)cc1 [CBK261441] | b0
* OCCn1ncc2c(NCc3cccc(Cn4ccnc4)c3)ncnc21 [CBK304184] | b2
* O=[N+]([O-])c1ccc2[nH]c3c(c2c1)CCCC3NC1CCN(CCc2ccccc2)CC1 (centres unmarked) [CBK262874] | b0
* COC(=O)CCc1ccc(-c2cnc(N)c(-c3ccc(O)cc3)n2)cc1 [CBK122809] | b2
* CCc1cc(Br)ccc1S(=O)(=O)NC(CC)COC (centres unmarked) [CBK045265] | b2

### Prompt Please classify: Oc1c(CN2CCN(c3ccc(F)cc3)CC2)cc(Br)c2cccnc12 [CBK268051]
### Response b1

### Prompt Please classify: N=C(N)SCc1csc(-c2ccc(Br)cc2)n1 [CBK017064C]
### Response b1

### Prompt Please classify: O=C(Nc1ccccc1N1CCCNCC1)c1ccc2ccccc2c1 [CBK038927T]
### Response b0

### Prompt Please classify: CC(=O)NC[C@H]1CN(c2ccc3c(c2)CCN(C(=O)Oc2ccccc2)CC3)C(=O)O1 [CBK018498]
### Response b0

### Prompt Please classify: COc1cccc(C(=O)N2CCC(Cc3ccc(-c4cccc(C)c4)cc3)(C(N)=O)CC2)c1 [CBK285779]
### Response b2

### Prompt Please classify: O=C(N/N=C/c1ccc(Sc2cccc3cccnc23)o1)c1cccc(F)c1 [CBK263263]
### Response b0

### Prompt Please classify: O=C(NCCc1c[nH]c2ccc(Cl)cc12)c1ccc(Cl)cc1Br [CBK159755]
### Response b0

### Prompt Please classify: Cc1ccc2[nH]c3c(c2c1)CCOC31CCN(Cc2ccccc2-c2ccccc2)CC1 [CBK039915]
### Response b1

### Prompt Please classify: O=C(NCCCn1ccnc1)c1cc(-c2ccc(Br)cc2)nc2ccccc12 [CBK262645]
### Response b1

### Prompt Please classify: CC1CC(C)CN(Cc2csc(NC(=O)Cc3ccc(Cl)cc3)n2)C1 (centres unmarked) [CBK306142]
### Response b2

### Prompt Please classify: CCCCc1ccc(Nc2csc(N)n2)cc1 [CBK020594]
### Response b0

### Prompt Please classify: Cc1cc2cc(C(=O)N3CCC(c4c(C(=O)NC(C)C)sc5ccccc45)C3)ccc2o1 (centres unmarked) [CBK285873]
### Response b1

###

Experiment: in vitro
Conditions: human, hela cells, % viability
Reported Metric: viability at 28.5 h, 10 µM (%)
Dear colleague, please return just the value in %, with no unit written.

Illustrative cases are given below, each with its answer.
* CCCc1nnc2sc(C3CCCN(C(C)C)C3)nn12 (stereo not shown) | 85.3
* O=C(Nc1ccccc1C(=O)O)c1cc(S(=O)(=O)Nc2cccc([N+](=O)[O-])c2)ccc1Cl | 90.3
* CN(C)CCN(C)c1ccc(-c2cc3ccccc3o2)cn1 | 107
* CC1(C(=O)O)NC(c2ccccc2O)C2C(=O)N(Cc3ccccc3)C(=O)C21 (stereo not shown) | 90.6
* O=C(O)C1CCN(C(=O)CCC2CCCCC2)CC1 | 89.3
* CC(=O)N(C)c1ncc(Br)cc1C(=O)N(C)C | 97.1
* Cc1cc(Cl)c(S(=O)(=O)Nc2ccon2)cc1OCC(N)=O | 99.6
* O=C(c1c(NS(=O)(=O)c2ccc3ccccc3c2)sc2c1CCCC2)N1CCOCC1 | 94.4

### Prompt Which viability at 28.5 h, 10 µM value is on record for N#CC1=C(N)Oc2cc(N)ccc2C1c1ccc(-c2ccccc2)cc1 (stereo not shown) ?
### Response 91.3

### Prompt Which viability at 28.5 h, 10 µM value is on record for `CN1CCN(C(=O)CN(CC(=O)N2CCN(C)CC2)S(=O)(=O)c2ccc(Cl)cc2)CC1` ?
### Response 96.6

### Prompt Which viability at 28.5 h, 10 µM value is on record for Cc1cccc(C(C)NC(=O)C2(Cn3ccnc3)CC2)n1 (stereo not shown) ?
### Response 86.4

### Prompt Which viability at 28.5 h, 10 µM value is on record for `Cc1cccc(CN2CCCC[C@H]3CN(C(=O)c4cccs4)C[C@H]32)c1` ?
### Response 85.8

### Prompt Which viability at 28.5 h, 10 µM value is on record for CN(C)S(=O)(=O)c1ccc(C(=O)C2=C(O)C(=O)N(Cc3cccnc3)C2c2ccccc2)cc1 (stereo not shown) ?
### Response 100

###

Experiment: in vitro
Conditions: human, hela cells, % viability
Reported Metric: viability at 28.5 h, 10 µM

Illustrative cases are given below, each with its answer.
* CCn1c2cc(C)sc2c2cnn(CCN3CCCC3)c(=O)c21 | 99.7%
* O=C(CN1CCOCC1)Nc1ccc(Cl)cc1C(=O)c1ccccc1 | 95.9%
* CC(C)(C)OC(=O)NCCC(=O)Oc1ccc2c3c(c(=O)oc2c1)CCCC3 | 89.3%
* S=c1cc(SCc2ccccc2Cl)nc[nH]1 | 95.2%
* CC(Cc1nc(C2CC2)cs1)n1cc(Cl)cn1 (centres unmarked) | 90.1%

### Prompt Which viability at 28.5 h, 10 µM value is on record for Cc1ccccc1C(NC(=O)C1CCN(C(=O)N(C)c2ccccc2)CC1)c1ccccn1 (centres unmarked) ?
### Response 88.7%

### Prompt Which viability at 28.5 h, 10 µM value is on record for `Cc1ccc(-c2nnc(CNC(=O)C(c3ccccc3)c3ccccc3)o2)s1` ?
### Response 102%

### Prompt Which viability at 28.5 h, 10 µM value is on record for Cc1nc(C(Cc2ccsc2)NC(=O)C(C)(C)N)sc1C (centres unmarked) ?
### Response 93%

### Prompt Which viability at 28.5 h, 10 µM value is on record for `Cc1noc(C)c1C(=O)N1CCC[C@H](C(=O)c2ccc(F)cc2)C1` ?
### Response 81.7%

### Prompt Which viability at 28.5 h, 10 µM value is on record for `CSc1nc(N)c2c3c(sc2n1)CN(C)CC3` ?
### Response 122%

### Prompt Which viability at 28.5 h, 10 µM value is on record for `COc1ccc(-c2cc(C(=O)NCCc3c[nH]c4ccccc34)cnc2-c2ccc(F)cc2)cn1` ?
### Response 95.2%
